// provenance: patent US9862679B2

# Study Target: Sigma 2 (Homo sapiens (Human), UniProt Q5BJF2)
# Sequence (Q5BJF2 whole entry): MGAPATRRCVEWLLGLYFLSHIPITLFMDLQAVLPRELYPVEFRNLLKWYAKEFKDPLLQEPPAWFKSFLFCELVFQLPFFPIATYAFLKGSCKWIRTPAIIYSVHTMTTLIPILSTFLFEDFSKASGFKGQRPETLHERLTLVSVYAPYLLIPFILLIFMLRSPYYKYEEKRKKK
# Method Description: Sigma 2 binding affinity (Table 5)
# Setup Conditions: Table 5 piperazinyl derivatives; read-out: Sigma 2 Ki ± SEM
Measurement Name: pKi
Recall that pKi is obtained by taking minus log10 of the concentration measured in molar.

The examples below pair each entry with its known result.
CC(O)CN1CCN(CC[S+]([O-])C(c2ccccc2)c2ccccc2)CC1 (racemic) [Compound 10a] ... 5.41
[O-][S+](CCN1CCN(CCCc2ccccc2)CC1)C(c1ccc(F)cc1)c1ccc(F)cc1 (centres unmarked) [Compound 8b] ... 7.59
OC(Cc1ccccc1)CN1CCN(CCSC(c2ccccc2)c2ccccc2)CC1 (racemic) [Compound 9g] ... 7.50

[in] Please indicate pKi recorded for [O-][S+](CCN1CCN(CC(O)Cc2ccccc2)CC1)C(c1ccc(F)cc1)c1ccc(F)cc1 (racemic) [Compound 10j]
[out] 6.75

[in] Please indicate pKi recorded for CC(O)CN1CCN(CC[S+]([O-])C(c2ccc(F)cc2)c2ccc(F)cc2)CC1 (racemic) [Compound 10d]
[out] 5.74

[in] Please indicate pKi recorded for O=C(C[S+]([O-])C(c1ccccc1)c1ccccc1)N1CCN(CCCc2ccccc2)CC1 (centres unmarked) [Compound 12a]
[out] 6.33

[in] Please indicate pKi recorded for [O-][S+](CCN1CCN(CC(O)Cc2ccccc2)CC1)C(c1ccccc1)c1ccccc1 (racemic) [Compound 10g]
[out] 6.50

[in] Please indicate pKi recorded for CC(O)CN1CCN(CCSC(c2ccc(F)cc2)c2ccc(F)cc2)CC1 (racemic) [Compound 9d]
[out] 7.07
